# Test system: HeLa
# experiment_summary: cell viability (CellTiter-Glo) relative to median of lowest-dilution wells of all drugs (fraction); higher = more viable cells
# stated_conditions: drug concentration (unit not stated): 1.11; genotype: control (DDX11 wild type)
Structures can show the parent of a compound that is named as a salt.
result_type: cell viability
Lab note: record just the number, no unit beside it.

Consider the following illustrative entries.
>>> meas_value("CC(C)(C)Cn1c(N)nc2ccc(-c3[nH]c(C(C)(C)C)nc3-c3ccc(F)cc3)nc21")
1.02
>>> meas_value("CCn1nc(C2CCN(C(=O)CCO)CC2)nc1-c1cnc(N)c(-c2nnc(C(C)(C)C)o2)n1")
0.98
>>> meas_value("CC(C)C[C@H](NC(=O)[C@H](Cc1ccccc1)NC(=O)c1cnccn1)B(O)O")
0.0168
>>> meas_value("C=CCn1c(=O)c2cnc(Nc3ccc(N4CCN(C)CC4)cc3)nc2n1-c1cccc(C(C)(C)O)n1")
0.615
>>> meas_value("COC1=CC(c2cc3ccccc3[nH]2)=N/C1=C\\c1[nH]c(C)cc1C [Obatoclax mesylate]")
0.415
>>> meas_value("CC[C@]1(O)C[C@@H]2CN(CCc3c([nH]c4ccccc34)[C@@](C(=O)OC)(c3cc4c(cc3OC)N(C)[C@H]3[C@@](O)(C(=O)OC)[C@H](OC(C)=O)[C@]5(CC)C=CCN6CC[C@]43[C@@H]65)C2)C1")
0.355

# ---- query compound ----
Provide HeLa cell viability reading for "NC(=O)c1ccc(I)c([N+](=O)[O-])c1" .
0.951

Provenance of the data: the supplement of paper PMC8092582
